Cited source for all entries: ChEMBL document CHEMBL1141403

test: Partition coefficient, log P of the compound; format: physicochemical; conditions: octanol/water
Assign fulfilled whenever logP does not fall below 6; assign not fulfilled whenever it does.

[
  {
    "compound": "C=C(C1COC2(OO1)C1CC3CC(C1)CC2C3)C12CC3CC(CC(C3)C1)C2 (stereo unspecified)",
    "class-assignment": "not fulfilled"
  },
  {
    "compound": "C=C(c1ccc2ccccc2c1)C1COC2(OO1)C1CC3CC(C1)CC2C3 (stereo unspecified)",
    "class-assignment": "not fulfilled"
  },
  {
    "compound": "C=C(c1ccc2c(c1)Cc1ccccc1-2)C1COC2(OO1)C1CC3CC(C1)CC2C3 (stereo unspecified)",
    "class-assignment": "fulfilled"
  },
  {
    "compound": "C=C(c1cccc2ccccc12)C1COC2(OO1)C1CC3CC(C1)CC2C3 (stereo unspecified)",
    "class-assignment": "not fulfilled"
  },
  {
    "compound": "C=C(C1COC2(CCCCC2)OO1)C12CC3CC(CC(C3)C1)C2 (stereo unspecified)",
    "class-assignment": "not fulfilled"
  }
]

====

assay: Partition coefficient, log P of the compound; format: physicochemical; details: octanol/water
Property: logP; scope: individual compounds

[
  {
    "compound": "C=C(c1ccc2c(ccc3ccccc32)c1)C1COC2(OO1)C1CC3CC(C1)CC2C3 (stereo not given)",
    "logP": 6.65
  },
  {
    "compound": "C=C(c1ccc2ccc3ccccc3c2c1)C1COC2(OO1)C1CC3CC(C1)CC2C3 (stereo not given)",
    "logP": 6.65
  },
  {
    "compound": "C=C(c1ccccc1)C1COC2(OO1)C1CC3CC(C1)CC2C3 (stereo not given)",
    "logP": 4.65
  },
  {
    "compound": "C[C@H]1[C@H](OC(=O)CCC(=O)O)O[C@@H]2O[C@@]3(C)CC[C@H]4[C@H](C)CC[C@@H]1[C@@]24OO3 [ARTESUNATE]",
    "logP": 3.04
  },
  {
    "compound": "C=C(C1COC2(CCCC2)OO1)C12CC3CC(CC(C3)C1)C2 (stereo not given)",
    "logP": 4.38
  }
]
